- tested target: T1, full length human KLRG1 (human, UniProt Q96E93 1-195)
- T1 sequence (looked up): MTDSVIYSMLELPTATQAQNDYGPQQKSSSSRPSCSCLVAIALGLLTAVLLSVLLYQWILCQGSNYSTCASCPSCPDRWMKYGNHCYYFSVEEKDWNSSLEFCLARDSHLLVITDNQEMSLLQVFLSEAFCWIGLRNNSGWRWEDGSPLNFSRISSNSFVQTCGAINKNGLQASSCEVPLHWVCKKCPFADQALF
- protocol: cell-based or functional assay
observable: IFNγ released (pg/ml), Sample 1

- binder: "ABC_G1N03 (antibody, V domains shown, Mouse hybridoma monoclonal antibody) VH: QVHLQQSGPELVKPGASVKLSCKASGDTFTTYDITWVKQRPGQGLEWIGWIYPKDGRTQNSEKFKDKATLTVDTSSTTAYMELHSLTSEDSAVYFCARRGQFGPYFDHWGQGSTLTVSS VL: VIQMTQSSSFLSASLGGRVSITCRASDHIYNWLAWYQQKPGNAPRLLISGATSLETGIPSRFSGGGSGKDYTLTIISLQTEDIASYYCQQYWNTPPTFGGGTKVEIK"
  observable: "IFNγ released (pg/ml), Sample 1"
  value observed: "934 pg/mL"
- binder: "ABC_G1N07 (antibody, V domains shown, Mouse hybridoma monoclonal antibody) VH: EVQLVESGGGLVKPGGSLKLSCTASGFTFRNYAMSWVRQTPEKRLEWVATISESGNYNNYPDNVKGRLTISRDNAKNNLYLQMSLLKSEDTAMYYCVRDDWEGRAMDYWGQGTSVTVSS VL: GIQMTQSPSSLSASLGERVSLTCRASRDIGSSLNWLQQKPDGTIKRLIYATSSLDSGVPKRFSGSRSGTDYSLTISSLESEDFVDYFCLQYASSPWTFGGGTKLEIK"
  observable: "IFNγ released (pg/ml), Sample 1"
  value observed: "1580 pg/mL"
- binder: "ABC_G1N08 (antibody, V domains shown, Mouse hybridoma monoclonal antibody) VH: QVQLQQSGAELAKPGASVKLSCKASGYTFTSYFLHWVKQRPGQGLEWIGYMNPSSGYTKCNQKFKDKATLTADKSSSTAYMQVSSLTYEDSAVYYCARDRIGYWDFDVWGTGTTVTVSS VL: DVVMTQSQKFMSTTVGDRVSITCKASQNVGTAVAWYQQKPGQSPKLLIYSASNRYTGVPDRFTGSGSGTDFTLTITNMQSEDLADYFCQQYSSYLTFGAGTKLDLK"
  observable: "IFNγ released (pg/ml), Sample 1"
  value observed: "1010 pg/mL"
